Taken from paper PMC3115441.

Target: UniProtKB Q01959
Experiment: NIMH-PDSP radioligand binding, DAT
parameter.measured: pKi
Answers are plain numbers, as −log10 of the molar value.

molecule: c1ccc(C2(NCCN3CCCC3)CC3CCC2C3)cc1 (stereo not drawn)
endpoint.value: 5.44
//
molecule: c1ccc(C2(NCCN3CCOCC3)CC3CCC2C3)cc1 (stereo not drawn)
endpoint.value: 5.59

Here's the next entry for you.
Memo: Fc1ccc(C2(NCCN3CCOCC3)CC3CCC2C3)cc1 (stereo not drawn) , reported pKi: 5.19

* * *

Biological target: Dopamine Transporter (DAT) (Homo sapiens, UniProt Q01959)
Sequence (Q01959 whole entry): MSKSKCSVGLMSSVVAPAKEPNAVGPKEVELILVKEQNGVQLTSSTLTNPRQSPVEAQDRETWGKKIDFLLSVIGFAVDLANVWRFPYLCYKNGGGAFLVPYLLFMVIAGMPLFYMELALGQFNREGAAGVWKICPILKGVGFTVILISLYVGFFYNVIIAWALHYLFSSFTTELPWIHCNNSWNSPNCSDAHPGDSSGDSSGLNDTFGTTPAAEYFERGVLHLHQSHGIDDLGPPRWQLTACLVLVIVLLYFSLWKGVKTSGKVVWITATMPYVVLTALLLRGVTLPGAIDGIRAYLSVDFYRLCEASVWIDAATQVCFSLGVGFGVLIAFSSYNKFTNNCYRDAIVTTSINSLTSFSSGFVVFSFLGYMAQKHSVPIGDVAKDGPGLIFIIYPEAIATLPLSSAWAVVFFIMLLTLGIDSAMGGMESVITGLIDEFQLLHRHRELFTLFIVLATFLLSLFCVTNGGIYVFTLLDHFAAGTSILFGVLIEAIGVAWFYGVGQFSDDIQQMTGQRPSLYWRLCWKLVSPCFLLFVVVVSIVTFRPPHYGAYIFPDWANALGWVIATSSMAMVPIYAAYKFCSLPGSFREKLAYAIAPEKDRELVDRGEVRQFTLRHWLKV
Test: NIMH-PDSP radioligand binding, DAT
Settings: read-out: DAT binding affinity; Human Cloned, hot ligand WIN35428
parameter.measured: pKi
Give bare numbers, as −log10 of the molar value.

molecule: Fc1ccc(C2(NCCN3CCCCC3)CC3CCC2C3)cc1 (centres unmarked)
pKi: 5.91

Here's the next entry for you.
Entry Fc1ccc(C2(NCCN3CCCC3)CC3CCC2C3)cc1 (centres unmarked) : pKi on Dopamine Transporter (DAT) (Homo sapiens, UniProt Q01959) = 6.65

* * *

Kindly state pKi for each of the entries shown.
Target: κ- opioid receptors (KOR) (Rattus norvegicus)
Sequence (P34975 whole entry): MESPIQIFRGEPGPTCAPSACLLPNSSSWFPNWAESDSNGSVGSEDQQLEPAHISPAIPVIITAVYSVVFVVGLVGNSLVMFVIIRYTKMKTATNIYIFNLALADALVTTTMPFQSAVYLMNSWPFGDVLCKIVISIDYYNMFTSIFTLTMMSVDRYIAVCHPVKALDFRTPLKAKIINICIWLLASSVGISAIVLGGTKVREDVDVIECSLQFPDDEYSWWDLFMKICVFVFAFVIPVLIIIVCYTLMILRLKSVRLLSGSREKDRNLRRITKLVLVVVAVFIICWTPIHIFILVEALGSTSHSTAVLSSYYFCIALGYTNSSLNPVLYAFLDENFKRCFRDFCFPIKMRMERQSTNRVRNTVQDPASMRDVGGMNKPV
Assay: NIMH-PDSP radioligand binding, KOR
Give bare numbers, as −log10 of the molar value.

Past entries and their recorded results:
compound: c1ccc(C2(NCCN3CCCC3)CC3CCC2C3)cc1 (stereo not drawn) [Compound 5e]
pKi: 5.35

compound: c1ccc(C2(NCCN3CCOCC3)CC3CCC2C3)cc1 (stereo not drawn) [Compound 5c]
pKi: 6.01

Here's the next entry for you.
Memo: c1ccc(C2(NCCN3CCCCC3)CC3CCC2C3)cc1 (stereo not drawn) [Compound 5a] , reported pKi: 6.06

* * *

Kindly state Ki for each of the entries shown.
Molecular target: Serotonin Transporter (SERT) (Homo sapiens, UniProt P31645)
Sequence (P31645 whole entry): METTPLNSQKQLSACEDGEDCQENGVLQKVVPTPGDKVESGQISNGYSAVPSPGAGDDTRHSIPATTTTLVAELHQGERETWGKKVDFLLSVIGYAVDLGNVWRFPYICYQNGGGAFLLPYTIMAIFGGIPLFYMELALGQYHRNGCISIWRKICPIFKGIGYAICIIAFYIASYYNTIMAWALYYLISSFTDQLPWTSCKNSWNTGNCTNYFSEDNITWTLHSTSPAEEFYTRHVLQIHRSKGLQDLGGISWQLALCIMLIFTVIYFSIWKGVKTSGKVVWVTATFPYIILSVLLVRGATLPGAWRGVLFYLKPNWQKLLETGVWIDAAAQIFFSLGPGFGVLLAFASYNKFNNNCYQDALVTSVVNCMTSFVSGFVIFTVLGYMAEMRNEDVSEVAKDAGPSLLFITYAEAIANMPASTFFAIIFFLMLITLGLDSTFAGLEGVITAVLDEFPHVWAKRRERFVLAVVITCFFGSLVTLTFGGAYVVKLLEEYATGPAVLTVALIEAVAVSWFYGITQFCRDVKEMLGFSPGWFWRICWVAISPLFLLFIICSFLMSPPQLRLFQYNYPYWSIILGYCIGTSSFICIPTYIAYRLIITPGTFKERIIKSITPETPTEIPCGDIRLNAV
Experiment: NIMH-PDSP radioligand binding, SERT
Details: read-out: SERT binding affinity; Human Cloned, hot ligand Citalopram

molecule: Fc1ccc(C2(NCCN3CCCC3)CC3CCC2C3)cc1 (centres unmarked)
Ki: 4.61 µM

Here's the next entry for you.
Memo: Fc1ccc(C2(NCCN3CCCCC3)CC3CCC2C3)cc1 (centres unmarked) , reported Ki: > 10 µM

* * *

Test system: mice
Experiment: Acute toxicity, minimal motor impairment
Format: in vivo
Conditions: rotorod, 100 mg/kg, 0.5 h
parameter.measured: TOX (100) N/F, animals toxic over tested

Past entries and their recorded results:
compound: NC1(c2ccccc2)CC2CCC1C2 (stereo not drawn) [Compound 4a, 2-phenylbicyclo[2.2.1]heptan-2-amine]
endpoint.value: 8/8
--
compound: NC1(c2ccc(F)cc2)CC2CCC1C2 (stereo not drawn)
endpoint.value: 8/8

Here's the next entry for you.
Memo: Fc1ccc(C2(NCCN3CCCCC3)CC3CCC2C3)cc1 (stereo not drawn) , reported TOX (100) N/F, animals toxic over tested: 3/8

* * *

Molecular target: Serotonin 2A (5-HT2A) (Homo sapiens, UniProt P28223)
Sequence (P28223 whole entry): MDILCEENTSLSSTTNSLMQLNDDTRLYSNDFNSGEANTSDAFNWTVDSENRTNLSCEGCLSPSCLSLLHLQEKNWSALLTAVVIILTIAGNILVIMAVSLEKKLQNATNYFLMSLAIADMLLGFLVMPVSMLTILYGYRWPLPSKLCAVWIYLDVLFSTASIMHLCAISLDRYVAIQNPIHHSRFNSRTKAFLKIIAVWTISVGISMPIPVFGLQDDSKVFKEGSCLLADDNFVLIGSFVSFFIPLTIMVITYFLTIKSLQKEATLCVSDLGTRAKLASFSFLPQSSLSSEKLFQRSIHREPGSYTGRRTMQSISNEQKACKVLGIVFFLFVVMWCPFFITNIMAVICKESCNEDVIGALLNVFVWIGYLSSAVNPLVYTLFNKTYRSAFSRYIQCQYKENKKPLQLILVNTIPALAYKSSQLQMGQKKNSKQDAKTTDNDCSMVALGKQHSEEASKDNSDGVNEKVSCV
Experiment: NIMH-PDSP radioligand binding, 5-HT2A
Details: read-out: 5HT2A binding affinity; Human Cloned, hot ligand Ketanserin
parameter.measured: pKi
Numbers only, as −log10 of the molar value.

Entry Fc1ccc(C2(NCCN3CCCCC3)CC3CCC2C3)cc1 (centres unmarked) : pKi on Serotonin 2A (5-HT2A) (Homo sapiens, UniProt P28223) = 5.05

* * *

Molecular target: PCP site of the NMDA receptor complex
Test: [3H]
Conditions: rat forebrain homogenate, 1 nM (+)-[3H]MK-801
Kindly state pIC50 for each of the entries shown.
Give bare numbers, as −log10 of the molar value.

compound: c1ccc(C2(NCCN3CCCC3)CC3CCC2C3)cc1 (stereo not shown)
pIC50: 5.07
--
compound: Fc1ccc(C2(NCCN3CCCC3)CC3CCC2C3)cc1 (stereo not shown)
pIC50: 5.06
--
compound: c1ccc(C2(NCCN3CCCCC3)CC3CCC2C3)cc1 (stereo not shown)
pIC50: 5.10

Here's the next entry for you.
Memo: NC1(c2ccccc2)CC2CCC1C2 (stereo not shown) [Compound 4a, 2-phenylbicyclo[2.2.1]heptan-2-amine] , reported pIC50: 4.88

* * *

Biological target: Sigma1 (Rattus norvegicus, UniProt Q9R0C9)
Sequence (Q9R0C9 whole entry): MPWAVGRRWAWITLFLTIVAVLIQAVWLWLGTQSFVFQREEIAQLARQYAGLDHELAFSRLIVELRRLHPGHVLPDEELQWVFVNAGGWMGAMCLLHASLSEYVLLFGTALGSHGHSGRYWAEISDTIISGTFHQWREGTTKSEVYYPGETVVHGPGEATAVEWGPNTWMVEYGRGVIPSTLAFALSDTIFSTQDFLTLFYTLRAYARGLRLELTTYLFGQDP
Experiment: NIMH-PDSP radioligand binding, Sigma-1
Kindly state Ki for each of the entries shown.

molecule: Fc1ccc(C2(NCCN3CCOCC3)CC3CCC2C3)cc1 (stereo not drawn) [Compound 5d]
target.or.test.system: Sigma1 (Rattus norvegicus, UniProt Q9R0C9)
Ki: > 10 µM

molecule: NC1(c2ccccc2)CC2CCC1C2 (stereo not drawn) [Compound 4a, 2-phenylbicyclo[2.2.1]heptan-2-amine]
target.or.test.system: Sigma1 (Rattus norvegicus, UniProt Q9R0C9)
Ki: 2.2 µM

Would you mind giving Ki for every molecule in the list below?
1. c1ccc(C2(NCCN3CCOCC3)CC3CCC2C3)cc1 (stereo not drawn) [Compound 5c]
2. c1ccc(C2(NCCN3CCCCC3)CC3CCC2C3)cc1 (stereo not drawn) [Compound 5a]

Given back:
1. > 10 µM
2. > 10 µM

Would you mind giving Ki for every molecule in the list below?
1. c1ccc(C2(NCCN3CCCC3)CC3CCC2C3)cc1 (stereo not drawn) [Compound 5e]
2. NC1(c2ccc(F)cc2)CC2CCC1C2 (stereo not drawn) [Compound 4b]

Given back:
1: > 10 µM; 2: > 10 µM

* * *

Molecular target: μ- opioid receptors (MOR) (Homo sapiens)
Sequence (P35372 whole entry): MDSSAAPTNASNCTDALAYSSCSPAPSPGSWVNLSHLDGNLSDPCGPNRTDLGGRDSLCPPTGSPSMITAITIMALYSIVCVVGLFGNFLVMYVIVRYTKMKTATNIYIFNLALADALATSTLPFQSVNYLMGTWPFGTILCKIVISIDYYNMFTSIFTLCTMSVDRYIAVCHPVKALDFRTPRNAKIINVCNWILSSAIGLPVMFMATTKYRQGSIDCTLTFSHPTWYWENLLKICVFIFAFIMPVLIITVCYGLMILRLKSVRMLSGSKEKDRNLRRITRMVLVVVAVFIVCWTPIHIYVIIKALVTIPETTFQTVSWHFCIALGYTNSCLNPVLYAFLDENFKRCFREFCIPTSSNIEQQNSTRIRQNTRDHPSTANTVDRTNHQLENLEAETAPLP
Test: NIMH-PDSP radioligand binding, MOR
Conditions: read-out: MOR binding affinity; Human Cloned, hot ligand DAMGO
pKi: −log10 of the molar value.
Kindly state pKi for each of the entries shown.

compound: Fc1ccc(C2(NCCN3CCCCC3)CC3CCC2C3)cc1 (centres unmarked)
pKi: < 5.00

Here's the next entry for you.
Entry Fc1ccc(C2(NCCN3CCCC3)CC3CCC2C3)cc1 (centres unmarked) : pKi on μ- opioid receptors (MOR) (Homo sapiens) = < 5.00

* * *

Kindly state scMET (30) N/F, animals active over tested for each of the entries shown.
Test system: Metrazol-induced clonic seizures
Test: Subcutaneous Metrazol seizure threshold test
Assay type: in vivo, mice
Conditions: 30 mg/kg, 0.5 h

Would you mind giving scMET (30) N/F, animals active over tested for every compound in the list below?
1. NC1(c2ccccc2)CC2CCC1C2 (centres unmarked) [Compound 4a, 2-phenylbicyclo[2.2.1]heptan-2-amine]
2. Fc1ccc(C2(NCCN3CCCC3)CC3CCC2C3)cc1 (centres unmarked)
3. c1ccc(C2(NCCN3CCCC3)CC3CCC2C3)cc1 (centres unmarked)
4. c1ccc(C2(NCCN3CCOCC3)CC3CCC2C3)cc1 (centres unmarked)
5. Fc1ccc(C2(NCCN3CCOCC3)CC3CCC2C3)cc1 (centres unmarked)

Given back:
1: 0/1 0/1; 2: 0/1 0/1; 3: 0/1 0/1; 4: 0/1 0/1; 5: 0/1 0/1

Would you mind giving scMET (30) N/F, animals active over tested for every compound in the list below?
1. c1ccc(C2(NCCN3CCCCC3)CC3CCC2C3)cc1 (centres unmarked)
2. NC1(c2ccc(F)cc2)CC2CCC1C2 (centres unmarked)
3. Fc1ccc(C2(NCCN3CCCCC3)CC3CCC2C3)cc1 (centres unmarked)

Given back:
1: 0/1 0/1; 2: 0/1 0/1; 3: 0/1 0/1

* * *

Biological target: Dopamine 2 (D2) (Homo sapiens, UniProt P14416)
Sequence (P14416 whole entry): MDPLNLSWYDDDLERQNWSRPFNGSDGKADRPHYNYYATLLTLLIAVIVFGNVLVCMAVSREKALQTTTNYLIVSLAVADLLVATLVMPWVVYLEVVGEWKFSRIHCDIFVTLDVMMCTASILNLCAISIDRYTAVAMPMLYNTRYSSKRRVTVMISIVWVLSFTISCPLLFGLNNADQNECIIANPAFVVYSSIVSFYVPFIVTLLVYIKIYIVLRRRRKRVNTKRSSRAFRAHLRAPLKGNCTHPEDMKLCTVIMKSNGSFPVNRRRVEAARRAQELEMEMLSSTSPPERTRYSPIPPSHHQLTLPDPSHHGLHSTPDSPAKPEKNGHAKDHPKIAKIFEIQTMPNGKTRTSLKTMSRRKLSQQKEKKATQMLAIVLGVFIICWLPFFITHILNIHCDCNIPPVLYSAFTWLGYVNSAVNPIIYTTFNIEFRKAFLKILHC
Experiment: NIMH-PDSP radioligand binding, D2
Settings: read-out: D2 binding affinity; Human Cloned, hot ligand N-Methylspiperone
pKi: −log10 of the molar value.
Kindly state pKi for each of the entries shown.

molecule: Fc1ccc(C2(NCCN3CCCCC3)CC3CCC2C3)cc1 (centres unmarked)
target.or.test.system: Dopamine 2 (D2) (Homo sapiens, UniProt P14416)
pKi: < 5.00

Memo: Fc1ccc(C2(NCCN3CCCC3)CC3CCC2C3)cc1 (centres unmarked) , reported pKi: < 5.00

* * *

System: mice
Assay: Acute toxicity, minimal motor impairment
Type: in vivo
Conditions: rotorod, 30 mg/kg, 0.5 h
parameter.measured: TOX (30) N/F, animals toxic over tested

Past entries and their recorded results:
compound: c1ccc(C2(NCCN3CCCCC3)CC3CCC2C3)cc1 (centres unmarked)
endpoint.value: 0/4
//
compound: NC1(c2ccc(F)cc2)CC2CCC1C2 (centres unmarked)
endpoint.value: 0/4
//
compound: c1ccc(C2(NCCN3CCCC3)CC3CCC2C3)cc1 (centres unmarked)
endpoint.value: 0/4

Would you mind giving TOX (30) N/F, animals toxic over tested for every compound in the list below?
1. Fc1ccc(C2(NCCN3CCCC3)CC3CCC2C3)cc1 (centres unmarked)
2. Fc1ccc(C2(NCCN3CCOCC3)CC3CCC2C3)cc1 (centres unmarked)
3. NC1(c2ccccc2)CC2CCC1C2 (centres unmarked) [Compound 4a, 2-phenylbicyclo[2.2.1]heptan-2-amine]
4. c1ccc(C2(NCCN3CCOCC3)CC3CCC2C3)cc1 (centres unmarked)
5. Fc1ccc(C2(NCCN3CCCCC3)CC3CCC2C3)cc1 (centres unmarked)

Given back:
["0/4", "0/4", "0/4", "0/4", "0/4"]
